Target: IRAK4 (Homo sapiens)
Construct: endogenous in cells; host or cells: Karpas299
Sequence (Q9NWZ3 whole entry): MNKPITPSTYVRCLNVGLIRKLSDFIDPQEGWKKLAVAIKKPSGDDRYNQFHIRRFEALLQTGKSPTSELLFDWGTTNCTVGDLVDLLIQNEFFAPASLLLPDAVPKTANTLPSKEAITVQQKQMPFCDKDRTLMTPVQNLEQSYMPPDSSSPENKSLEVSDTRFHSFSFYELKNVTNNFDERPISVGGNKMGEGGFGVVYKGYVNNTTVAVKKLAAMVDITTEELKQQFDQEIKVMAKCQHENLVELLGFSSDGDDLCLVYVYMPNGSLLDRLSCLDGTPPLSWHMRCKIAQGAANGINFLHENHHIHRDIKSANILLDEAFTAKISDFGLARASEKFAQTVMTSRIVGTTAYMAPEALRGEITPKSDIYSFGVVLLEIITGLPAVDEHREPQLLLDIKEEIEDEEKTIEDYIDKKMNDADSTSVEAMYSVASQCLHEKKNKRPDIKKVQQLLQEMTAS
Test: IRAK4 Degradation Assay (Karpas299, HTRF/TR-FRET)
Type: cell-based
Conditions: Karpas-299 cells, 24 h treatment; maximum percentage of degradation; read-out: IRAK4 in Karpas-299 (24 h) Dmax (%)
Measured Quantity: Dmax (%)

1. CC(C)(O)c1cc2nn([C@H]3CC[C@H](N4CCN(C(=O)[C@@H]5CCN(c6ccc(N7CCC(=O)NC7=O)cc6)C5)CC4)CC3)cc2cc1NC(=O)c1ccc2cc(C#N)cnn12 [Example 263]; 96
2. O=C1CCN(c2c(F)cc(N3CC(C(=O)N4CCN([C@H]5CC[C@H](n6cc(NC(=O)c7coc(-c8ccnc(NCC(F)(F)F)c8)n7)c(C(F)F)n6)CC5)CC4)C3)cc2F)C(=O)N1 [Example 76]; 97
3. COc1cc2nn([C@H]3CC[C@H](N4CCN(C(=O)C5CN(c6cc(F)c([C@H]7CCC(=O)NC7=O)c(F)c6)C5)CC4)CC3)cc2cc1C(=O)Nc1cnc2cccnn12 [Example 343]; 97
4. CC(C)(O)c1cc2nn([C@H]3CC[C@H](N4CCN(C(=O)C5CN(c6ccc(N7CCC(=O)NC7=O)cc6)C5)CC4)CC3)cc2cc1NC(=O)c1ccc2cc(C#N)cnn12 [Example 265]; 97
5. N#Cc1cnc2c(C(=O)Nc3ccc4nn([C@H]5CC[C@H](N6CCN(C7CN(c8cc(F)c([C@H]9CCC(=O)NC9=O)c(F)c8)C7)CC6)CC5)cc4c3)cnn2c1 [Example 424]; 42
6. NC(=O)c1nn([C@H]2CC[C@H](N3CCN(C4CC(c5ccc(N[C@H]6CCC(=O)NC6=O)cc5)C4)CC3)CC2)cc1NC(=O)c1coc(-c2ccnc(NCC(F)(F)F)c2)n1 (stereo partly shown) [Example 10]; 92
7. CC(C)(O)c1cc2nn(C34CC(N5CCN(CC6CN(c7cc(F)c(N8CCC(=O)NC8=O)c(F)c7)C6)CC5)(C3)C4)cc2cc1NC(=O)c1ccc2cc(C#N)cnn12 [Example 354]; 98
8. O=C1CCN(c2ccc(N3CC[C@H](C(=O)N4CCN([C@H]5CC[C@H](n6cc(NC(=O)c7coc(-c8ccnc(NCC(F)(F)F)c8)n7)c(C(F)F)n6)CC5)CC4)C3)cc2)C(=O)N1 [Example 15]; 30
9. COC[C@@H]1CN([C@H]2CC[C@H](n3cc4cc(NC(=O)c5ccc6cc(C#N)cnn56)c(C(C)(C)O)cc4n3)CC2)CCN1CC1CN(c2cc(F)c([C@H]3CCC(=O)NC3=O)c(F)c2)C1 [Example 358]; 99
10. O=C1CC[C@H](c2c(F)cc(N3CC[C@@H](C(=O)N4CCN([C@H]5CC[C@H](n6cc(NC(=O)c7coc(-c8ccnc(NCC(F)(F)F)c8)n7)c(C(F)F)n6)CC5)CC4)C3)cc2F)C(=O)N1 [Example 17]; 97
